Value source: patent US20250152746A1

tested on: PCSK9 gene; assay: PCSK9 gRNA/SpCas9 editing in primary cynomolgus hepatocytes (Tables 2, 22); format: cell-based, cynomolgus monkey; settings: 500 ng/RNA/mL; SpCas9 mRNA MS002 1:1 by weight
In the oligonucleotide strings, read from the 5' end, every base follows the letter of its sugar. An asterisk marks phosphorothioate; unmarked linkages are phosphodiester. Other units and linkages are bracketed, terminal groups are in braces. A string of capitals states the bases alone. m = 2'-O-methyl; r = 2'-OH (RNA)
Reported Cyno Primary Hepatocyte Editing % 500 values for a set of molecules
Report only the number, with the unit % understood.

Known results for molecules:
>>> obs_value("GA239: PCSK9 gRNA; protospacer CCGCCTGCCAGCGCCTGGCG (SEQ ID NO: 232) (nucleic acid, sugars from the 5' end m3 r94 m3, linkages s3 o93 s3 (s phosphorothioate, o phosphodiester), T or U not given here) guide: CCGCCUGCCAGCGCCUGGCGGUUUUAGAGCUAGAAAUAGCAAGUUAAAAUAAGGCUAGUCCGUUAUCAACUUGAAAAAGUGGCACCGAGUCGGUGCUUUU")
0.55
>>> obs_value("GA187: PCSK9 gRNA; protospacer CTCCTCGATGTAGTCGACAT (SEQ ID NO: 181) (nucleic acid) guide: mC*mU*mC*rCrUrCrGrArUrGrUrArGrUrCrGrArCrArUrGrUrUrUrUrArGrArGrCrUrArGrArArArUrArGrCrArArGrUrUrArArArArUrArArGrGrCrUrArGrUrCrCrGrUrUrArUrCrArArCrUrUrGrArArArArArGrUrGrGrCrArCrCrGrArGrUrCrGrGrUrGrCrU*mU*mU*mU")
12.30
>>> obs_value("GA163: PCSK9 gRNA; protospacer CGTCCTCGTCCTCCTGCGCA (SEQ ID NO: 157) (nucleic acid, sugars from the 5' end m3 r94 m3, linkages s3 o93 s3 (s phosphorothioate, o phosphodiester), T or U not given here) guide: CGUCCUCGUCCUCCUGCGCAGUUUUAGAGCUAGAAAUAGCAAGUUAAAAUAAGGCUAGUCCGUUAUCAACUUGAAAAAGUGGCACCGAGUCGGUGCUUUU")
17.69
>>> obs_value("GA223: PCSK9 gRNA; protospacer GCTGACCACCCCTGCCAGGT (SEQ ID NO: 217) (nucleic acid, sugars from the 5' end m3 r94 m3, linkages s3 o93 s3 (s phosphorothioate, o phosphodiester), T or U not given here) guide: GCUGACCACCCCUGCCAGGUGUUUUAGAGCUAGAAAUAGCAAGUUAAAAUAAGGCUAGUCCGUUAUCAACUUGAAAAAGUGGCACCGAGUCGGUGCUUUU")
21.4
>>> obs_value("GA171: PCSK9 gRNA; protospacer TCTTGGTGAGGTATCCCCGG (SEQ ID NO: 165) (nucleic acid, 2'-O-methyl at 1, 2, other sugars, backbone and T or U not given here; further chemistry not fully specified) guide: UCTTGGTGAGGTATCCCCGGGTTTTAGAGCTAGAAATAGCAAGTTAAAATAAGGCTAGTCCGTTATCAACTTGAAAAAGTGGCACCGAGTCGGTGCTTTT")
9.06

Turning to the following molecule.
For reference, reported Cyno Primary Hepatocyte Editing % 500 for GA180: PCSK9 gRNA; protospacer GCGCACTGCCCGCCGCCTGC (SEQ ID NO: 174) (nucleic acid) guide: mG*mC*mG*rCrArCrUrGrCrCrCrGrCrCrGrCrCrUrGrCrGrUrUrUrUrArGrArGrCrUrArGrArArArUrArGrCrArArGrUrUrArArArArUrArArGrGrCrUrArGrUrCrCrGrUrUrArUrCrArArCrUrUrGrArArArArArGrUrGrGrCrArCrCrGrArGrUrCrGrGrUrGrCrU*mU*mU*mU stands at 2.45
